Hey, just so you know, these numbers are from paper PMC7795425.

Some compounds, each annotated with its measured IC50 at 72 h.
- ASSAY NAME: Calcein AM cytotoxicity assay, CEM
- Type: cell-based
- TEST CONDITIONS: human, CEM T-lymphoblastic leukemia cells, IC50 > 50 µM means inactive, read-out: Cytotoxic activity IC50

// below: answered compounds
> print(dat)
                                   compound  property.measured  test.result
1  C[C@H]([C@@H](O)[C@H](O)C(=O)N1CCCC1)[C@H]1CC[C@H]2[C@@H]3CC(=O)[C@H]4C[C@H](O)[C@H](O)C[C@]4(C)[C@H]3CC[C@]12C [20c]       IC50 at 72 h      > 50 µM
2  C[C@H](C(=O)N1CCCC1)[C@H]1CC[C@H]2[C@@H]3CC(=O)[C@H]4C[C@H](O)[C@H](O)C[C@]4(C)[C@H]3CC[C@]12C [8c]       IC50 at 72 h      > 50 µM
3  C[C@H](C(=O)N(C)C)[C@H]1CC[C@H]2[C@@H]3CC(=O)[C@H]4C[C@H](O)[C@H](O)C[C@]4(C)[C@H]3CC[C@]12C [8a]       IC50 at 72 h      > 50 µM

Below: the item to evaluate.
Task: Need IC50 at 72 h, item C[C@H](CN1CCCC1)[C@H]1CC[C@H]2[C@@H]3CC(=O)[C@H]4C[C@H](O)[C@H](O)C[C@]4(C)[C@H]3CC[C@]12C [15c]
Result: > 50 µM

* * *

Some compounds, each annotated with its measured root length, mean.
- Test system: Arabidopsis thaliana L. (Columbia ecotype, Col-0) seedlings
- ASSAY NAME: Arabidopsis root sensitivity bioassay
- Format: in vivo
- TEST CONDITIONS: 0.1 nM, 7-day-old seedlings; control 16.3 ± 1.21
# unit: mm | format: bare number

> print(dat)
                                   compound  property.measured  test.result
1  C[C@H](CN1CCCC1)[C@H]1CCC2C3CC(=O)[C@H]4C[C@H](O)[C@H](O)C[C@]4(C)C3CC[C@@]21C (stereo partly drawn) [16c]  root length, mean        15.97
2  C[C@H](C(=O)N(C)C)[C@H]1CC[C@H]2[C@@H]3CC(=O)[C@H]4C[C@H](O)[C@H](O)C[C@]4(C)[C@H]3CC[C@]12C  root length, mean        16.12
3  CCN(CC)C[C@@H](C)[C@H]1CC[C@H]2[C@@H]3CC(=O)[C@H]4C[C@H](O)[C@H](O)C[C@]4(C)[C@H]3CC[C@]12C [15b]  root length, mean        14.93
4  C[C@H](CN(C)C)[C@H]1CC[C@H]2[C@@H]3CC(=O)[C@H]4C[C@H](O)[C@H](O)C[C@]4(C)[C@H]3CC[C@]12C [15a]  root length, mean        14.83
5  C[C@H](C(=O)N1CCOCC1)[C@H]1CC[C@H]2[C@@H]3CC(=O)[C@H]4C[C@H](O)[C@H](O)C[C@]4(C)[C@H]3CC[C@]12C  root length, mean        17.77

Task: Need root length, mean, item C[C@H]([C@@H](O)[C@@H](O)CN1CCCCC1)[C@H]1CC[C@H]2[C@@H]3CC(=O)[C@H]4C[C@H](O)[C@H](O)C[C@]4(C)[C@H]3CC[C@]12C.Cl [22d]
Result: 15.48

Task: Need root length, mean, item CCN(CC)C[C@H](O)[C@H](O)[C@@H](C)[C@H]1CC[C@H]2[C@@H]3CC(=O)[C@H]4C[C@H](O)[C@H](O)C[C@]4(C)[C@H]3CC[C@]12C.Cl [22b]
Result: 14.51

Task: Need root length, mean, item CCN(CC)C(=O)[C@@H](C)[C@H]1CC[C@H]2[C@@H]3CC(=O)[C@H]4C[C@H](O)[C@H](O)C[C@]4(C)[C@H]3CC[C@]12C
Result: 18.41

Task: Need root length, mean, item C[C@H](CN1CCCCC1)[C@H]1CCC2C3CC(=O)[C@H]4C[C@H](O)[C@H](O)C[C@]4(C)C3CC[C@@]21C (stereo partly drawn) [16d]
Result: 15.32

Task: Need root length, mean, item C[C@H]([C@@H](O)[C@@H](O)CN1CCCC1)[C@H]1CC[C@H]2[C@@H]3CC(=O)[C@H]4C[C@H](O)[C@H](O)C[C@]4(C)[C@H]3CC[C@]12C.Cl [22c]
Result: 15.97

Task: Need root length, mean, item C[C@H]([C@@H](O)[C@H](O)C(=O)N1CCOCC1)[C@H]1CC[C@H]2[C@@H]3CC(=O)[C@H]4C[C@H](O)[C@H](O)C[C@]4(C)[C@H]3CC[C@]12C [20e]
Result: 17.44

Task: Need root length, mean, item C[C@H]([C@@H](O)[C@H](O)C(=O)N(C)C)[C@H]1CC[C@H]2[C@@H]3CC(=O)[C@H]4C[C@H](O)[C@H](O)C[C@]4(C)[C@H]3CC[C@]12C [20a]
Result: 16.13
